B1: DLC1 (parent)
chain: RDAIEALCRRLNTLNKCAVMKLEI

Variants of: B1
assay.method.text: protein stability index of a GFP-peptide fusion (GPS, HEK-293T) (PSI 1-6); higher = more stable;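 note: lentivirally expressed fusions sorted by FACS into six bins by GFP to DsRed ratio, PSI derived from sequencing read proportions per bin multiplied by bin number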
condition: c terminus: a fixed tail appended
Please use true whenever protein stability index is not below 2, and false whenever it is.

hey, is protein stability index for this one >= 2? T13Y
true

Decide: is the reported value of protein stability index for L14C equal to or greater than 2?
true

Determine whether this variant has protein stability index no lower than 2: R9G
false

Could you verify whether the entry N15Y shows protein stability index of no less than 2?
false

Kindly determine if protein stability index recorded for R10Y is above or exactly 2.
true

In plain terms: is recorded protein stability index at least 2 for I24L ?
true

Form field: protein stability index at least 2? Entry: L11Y
true

Is it the case that R10H has protein stability index reaching or exceeding 2?
true

Is it the case that E5H has protein stability index reaching or exceeding 2?
true

Determine whether measured protein stability index meets or exceeds 2 for E5C
true

hey, is protein stability index for this one >= 2? V19L
true

Textbook exercise: given the entry E23W , state whether its protein stability index is greater than or equal to 2.
true

Confirm if protein stability index reported for the variant L7H is 2 or above.
false

State whether the measured protein stability index reaches 2, counting equality as reaching it, for K21C
false

Decide: is the reported value of protein stability index for L7Y equal to or greater than 2?
false

Decide: protein stability index of I4H >= 2?
true

Hi, just wondering whether L7G shows protein stability index of 2 or higher.
true

Confirm if protein stability index reported for the variant R9D is 2 or above.
true

Reported protein stability index at or above 2? L11D
true

API: above_or_equal(metric=protein stability index, cutoff=2) for item L14S
true

protein stability index >= 2 for N15H ?
true

# check: protein stability index of M20S is greater than or equal to 2
true

Quick check, protein stability index >= 2? K21Q
true

Record D2P ; criterion: protein stability index no lower than 2. Met?
true

Does L22I have a reported protein stability index of at least 2?
false

Is reported protein stability index greater than or equal to 2 here: I4M
true

Given the entry K21R , answer whether its protein stability index meets or surpasses 2.
true

Given R1S , state whether its protein stability index is at least 2.
true

Could you verify whether the entry A6N shows protein stability index of no less than 2?
true

Tell me whether protein stability index is at least 2 here: L11S
true

Is protein stability index at least 2? Consider I24C
true

Does the reported protein stability index for V19F fall at or above the 2 mark?
false

Hi team, for N12A , is the recorded protein stability index at or above 2?
false

Would you say M20Q shows protein stability index at minimum 2?
false

Is the recorded value of protein stability index equal to or greater than 2 for this variant? M20G
false

Quick check: does K16W have protein stability index greater than or equal to 2?
true

Is protein stability index at least 2? Consider I4Q
true

Record V19W ; criterion: protein stability index no lower than 2. Met?
true

Given N12Q , state whether its protein stability index is at least 2.
false

Is it the case that I24V has protein stability index reaching or exceeding 2?
true

Threshold query (protein stability index >= 2) on L14I
true
